B1: KLHL13 (parent)
chain: TGEFLKLPFERLAFVLSSNSLKHC

# Variants of: B1
# PROTOCOL_TEXT: protein stability index of a GFP-peptide fusion (GPS, HEK-293T) (PSI 1-6); higher = more stable;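 also: lentivirally expressed fusions sorted by FACS into six bins by GFP to DsRed ratio, PSI derived from sequencing read proportions per bin multiplied by bin number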
# COND: c terminus: a fixed tail appended
ASSAY_METRIC: protein stability index

Input line: Quote protein stability index reported for `F14C` please.
Output line: 1.95

Input line: Quote protein stability index reported for `N19G` please.
Output line: 3.21

Input line: Quote protein stability index reported for `F9C` please.
Output line: 1.82

Input line: Quote protein stability index reported for `F14R` please.
Output line: 1.4

Input line: Quote protein stability index reported for `V15M` please.
Output line: 1.96

Input line: Quote protein stability index reported for `F14Q` please.
Output line: 1.66

Input line: Quote protein stability index reported for `S18K` please.
Output line: 3.09

Input line: Quote protein stability index reported for `L21T` please.
Output line: 2.49

Input line: Quote protein stability index reported for `L16T` please.
Output line: 1.75

Input line: Quote protein stability index reported for `C24Q` please.
Output line: 1.6

Input line: Quote protein stability index reported for `L12G` please.
Output line: 2.83

Input line: Quote protein stability index reported for `N19K` please.
Output line: 2.22

Input line: Quote protein stability index reported for `S18Y` please.
Output line: 2.79

Input line: Quote protein stability index reported for `F9G` please.
Output line: 2.18

Input line: Quote protein stability index reported for `C24H` please.
Output line: 2.56

Input line: Quote protein stability index reported for `L7E` please.
Output line: 1.08

Input line: Quote protein stability index reported for `A13H` please.
Output line: 1.72

Input line: Quote protein stability index reported for `A13Q` please.
Output line: 2.26

Input line: Quote protein stability index reported for `G2K` please.
Output line: 2.12

Input line: Quote protein stability index reported for `F14T` please.
Output line: 2.21

Input line: Quote protein stability index reported for `A13S` please.
Output line: 1.99

Input line: Quote protein stability index reported for `S20D` please.
Output line: 2.29

Input line: Quote protein stability index reported for `F14M` please.
Output line: 2.74

Input line: Quote protein stability index reported for `S17M` please.
Output line: 2.2

Input line: Quote protein stability index reported for `S20F` please.
Output line: 2.55

Input line: Quote protein stability index reported for `V15I` please.
Output line: 2

Input line: Quote protein stability index reported for `N19T` please.
Output line: 2.98

Input line: Quote protein stability index reported for `H23N` please.
Output line: 2.42

Input line: Quote protein stability index reported for `N19Q` please.
Output line: 1.81

Input line: Quote protein stability index reported for `S17P` please.
Output line: 1.7

Input line: Quote protein stability index reported for `V15H` please.
Output line: 2.27

Input line: Quote protein stability index reported for `F4S` please.
Output line: 3.3

Input line: Quote protein stability index reported for `L16Q` please.
Output line: 2.24

Input line: Quote protein stability index reported for `S20N` please.
Output line: 3.25

Input line: Quote protein stability index reported for `S20P` please.
Output line: 2.4

Input line: Quote protein stability index reported for `H23Q` please.
Output line: 4.44

Input line: Quote protein stability index reported for `L7P` please.
Output line: 2.87

Where do the numbers come from? From the supplement of paper PMC10567573.
